Values were extracted from ChEMBL document CHEMBL1165891.

Assay: Antiinflammatory activity against mouse Y16 cells assessed as inhibition of IL5 production at 30 uM
Assay type: functional
attribute_measured: inhibition at 30 µM (%)
Output spec: scalar in %, unitless text.

Entry under test: O=c1c(Cc2ccc(Cl)cc2)coc2cccc(OCC3CCCCC3)c12 . Its inhibition at 30 µM was 36

---

Experiment: Antiinflammatory activity against mouse Y16 cells assessed as inhibition of IL5 production at 30 uM
Type: functional
Below, each entry is listed alongside its reported inhibition at 30 µM.
Output spec: scalar in %, unitless text.

Answered cases to consult:
chemical_string | inhibition at 30 µM / %
Cc1ccc(Cc2coc3cccc(OCCC(C)C)c3c2=O)cc1 | 35
CCc1ccc(Cc2coc3cccc(OCC4CCCCC4)c3c2=O)cc1 | 45
CC(C)CCOc1cccc2occ(Cc3ccc(O)cc3)c(=O)c12 | 36

Entry under test: COc1cc(Cc2coc3cccc(OCC4CCCCC4)c3c2=O)cc(OC)c1OC . Its inhibition at 30 µM was 85

Entry under test: O=c1c(Cc2ccccc2)coc2cccc(OCC3CCCCC3)c12 . Its inhibition at 30 µM was 56

Entry under test: O=c1c(CCl)coc2cccc(OCC3CCCCC3)c12 . Its inhibition at 30 µM was 45

---

Assay: Antiinflammatory activity against mouse Y16 cells assessed as inhibition of IL5 production at 30 uM
Format: functional
attribute_measured: inhibition at 30 µM (%)
Output spec: scalar in %, unitless text.

Answered cases to consult:
chemical_string | attribute_measured | observed
O=c1c(Cc2ccc(O)cc2)coc2cccc(OCC3CCCCC3)c12 | inhibition at 30 µM | 98
O=c1c(CO)coc2cccc(OCC3CCCCC3)c12 | inhibition at 30 µM | 84
CC(C)COc1cccc2occ(Cc3ccc(C(=O)O)cc3)c(=O)c12 | inhibition at 30 µM | 73
O=C(O)c1ccc(Cc2coc3cccc(OCC4CCCCC4)c3c2=O)cc1 | inhibition at 30 µM | 77
O=c1c(Cc2ccc(C(F)(F)F)cc2)coc2cccc(OCC3CCCCC3)c12 | inhibition at 30 µM | 47
O=C(O)c1coc2cccc(OCC3CCCCC3)c2c1=O | inhibition at 30 µM | 43
Cc1ccc(Cc2coc3cccc(OCC4CCCCC4)c3c2=O)cc1 | inhibition at 30 µM | 86
CC(C)COc1cccc2occ(CO)c(=O)c12 | inhibition at 30 µM | 56
CC(C)COc1cccc2occ(CCl)c(=O)c12 | inhibition at 30 µM | 43
CC(C)COc1cccc2occ(C(=O)O)c(=O)c12 | inhibition at 30 µM | 33

Entry under test: NS(=O)(=O)c1ccc(Cc2coc3cccc(OCC4CCCCC4)c3c2=O)cc1 . Its inhibition at 30 µM was 31
